- Test system: Hsp90 in HEPG2 lysate
- Condition description: HEPG2 lysate, log concentration 2.04576 (111.111 nM)
Assign labels as follows, please: yes for FP signal, Fxn Control below 0.5; no for FP signal, Fxn Control equal to or exceeding 0.5.

CCNC(=O)c1noc(-c2cc(C(C)C)c(O)cc2O)c1-c1ccc(CN2CCOCC2)cc1 [AUY922, reference compound]: yes
C[C@@H]1C[C@@H]2O[C@@H]2/C=C\C=C\C(=NOCc2ccccc2Cl)Cc2c(Cl)c(O)cc(O)c2C(=O)O1: no
CC1(C)CC(=O)c2c(C(F)(F)F)nn(-c3ccc(C(N)=O)c(N[C@H]4CC[C@H](O)CC4)c3)c2C1 [SNX-2112, reference compound]: yes
CC1CC2OC2C=CC=CC(=NOCc2ccccc2)Cc2c(Cl)c(O)cc(O)c2C(=O)O1 (mixture of isomers): no
CC1CC2OC2C=CC=CC(=NOCc2cccc(F)c2)Cc2c(Cl)c(O)cc(O)c2C(=O)O1 (mixture of isomers): no
COc1ccc(CON=C2C=CC=CC3OC3CC(C)OC(=O)c3c(O)cc(O)cc3C2)cc1 (stereo not drawn): no
Cc1ccc(CON=C2C=CC=CC3OC3CC(C)OC(=O)c3c(O)cc(O)c(Cl)c3C2)cc1 (mixture of isomers): no
COc1ccccc1CON=C1C=CC=CC2OC2CC(C)OC(=O)c2c(O)cc(O)c(Cl)c2C1 (mixture of isomers): no
COc1ccc(CON=C2C=CC=CC3OC3CC(C)OC(=O)c3c(O)cc(O)c(Cl)c3C2)cc1 (mixture of isomers): no
CCON=C1/C=C/C=C\[C@H]2O[C@H]2C[C@@H](C)OC(=O)c2c(O)cc(O)c(Cl)c2C1: yes
CC1CC2OC2C=CC=CC(=NOCCN2CCCC2=O)Cc2c(Cl)c(O)cc(O)c2C(=O)O1 (stereo not drawn) [KF58333, reference compound]: yes

###

- Target: Hsp90 in C. albicans (SC5314) lysate (Candida albicans)
- Construct: endogenous in cells; host or cells: C. albicans SC5314 whole-cell lysate
- Sequence (P46598 whole entry): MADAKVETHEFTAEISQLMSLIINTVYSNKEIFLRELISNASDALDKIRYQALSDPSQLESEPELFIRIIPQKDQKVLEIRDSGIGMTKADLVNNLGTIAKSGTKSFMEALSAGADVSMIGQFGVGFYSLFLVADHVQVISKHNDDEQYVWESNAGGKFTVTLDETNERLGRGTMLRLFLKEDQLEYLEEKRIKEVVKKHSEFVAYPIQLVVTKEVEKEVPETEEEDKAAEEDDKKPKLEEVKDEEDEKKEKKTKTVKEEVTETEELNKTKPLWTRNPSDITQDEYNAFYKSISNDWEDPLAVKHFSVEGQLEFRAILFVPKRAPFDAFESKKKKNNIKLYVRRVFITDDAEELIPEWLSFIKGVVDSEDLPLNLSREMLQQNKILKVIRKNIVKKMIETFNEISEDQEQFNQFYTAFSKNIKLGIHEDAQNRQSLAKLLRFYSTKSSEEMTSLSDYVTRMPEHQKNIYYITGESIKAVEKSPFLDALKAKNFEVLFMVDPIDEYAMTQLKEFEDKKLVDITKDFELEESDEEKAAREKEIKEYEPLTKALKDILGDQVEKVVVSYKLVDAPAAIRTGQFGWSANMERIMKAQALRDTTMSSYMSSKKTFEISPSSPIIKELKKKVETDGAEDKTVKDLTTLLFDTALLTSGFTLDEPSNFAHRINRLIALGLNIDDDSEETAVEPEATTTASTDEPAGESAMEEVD
- Assay explanation: biochemical
- Assay type: binding
- Condition description: SC5314 lysate, 111.111 nM
Reported FP signal (raw) values follow for various molecules
Measured endpoint: FP signal (raw)

C[C@@H]1C[C@@H]2O[C@@H]2/C=C\C=C\C(=NOCc2ccccc2Cl)Cc2c(Cl)c(O)cc(O)c2C(=O)O1: 186
CCON=C1/C=C/C=C\[C@H]2O[C@H]2C[C@@H](C)OC(=O)c2c(O)cc(O)c(Cl)c2C1: 39
CC1(C)CC(=O)c2c(C(F)(F)F)nn(-c3ccc(C(N)=O)c(N[C@H]4CC[C@H](OC(=O)CN)CC4)c3)c2C1: 41
COc1ccc(CON=C2C=CC=CC3OC3CC(C)OC(=O)c3c(O)cc(O)c(Cl)c3C2)cc1 (mixture of isomers): 193
CC1CC2OC2C=CC=CC(=NOCc2ccccc2)Cc2c(Cl)c(O)cc(O)c2C(=O)O1 (mixture of isomers): 183
COc1ccc(CON=C2C=CC=CC3OC3CC(C)OC(=O)c3c(O)cc(O)cc3C2)cc1 (stereo not shown): 182
Cc1ccc(CON=C2C=CC=CC3OC3CC(C)OC(=O)c3c(O)cc(O)c(Cl)c3C2)cc1 (mixture of isomers): 197

###

- Target: Hsp90 in C. albicans (SC5314) lysate (Candida albicans)
- Construct: endogenous in cells; host or cells: C. albicans SC5314 whole-cell lysate
- Assay explanation: biochemical
- Format: binding
- Condition description: SC5314 lysate, 1.372 nM
Measured endpoint: FP signal (raw)

Cc1ccc(CON=C2C=CC=CC3OC3CC(C)OC(=O)c3c(O)cc(O)c(Cl)c3C2)cc1 (mixture of isomers) [compound 218]: 199
CCNC(=O)c1noc(-c2cc(C(C)C)c(O)cc2O)c1-c1ccc(CN2CCOCC2)cc1 [AUY922, reference compound]: 186
COc1ccc(CON=C2C=CC=CC3OC3CC(C)OC(=O)c3c(O)cc(O)c(Cl)c3C2)cc1 (mixture of isomers) [compound 224]: 206

###

- Target: Hsp90 in C. albicans (SC5314) lysate (Candida albicans)
- Construct: endogenous in cells; host or cells: C. albicans SC5314 whole-cell lysate
- Assay explanation: biochemical
- Assay type: binding
- Condition description: SC5314 lysate, 111.111 nM compound, raw
Measured endpoint: FP signal

COC1=C2C[C@@H](C)C[C@H](OC)[C@H](O)[C@@H](C)/C=C(\C)[C@H](OC(N)=O)[C@@H](OC)/C=C\C=C(/C)C(=O)NC(=CC1=O)C2=O [geldanamycin, reference compound]: 47
COc1ccc(CON=C2C=CC=CC3OC3CC(C)OC(=O)c3c(O)cc(O)c(Cl)c3C2)cc1 (mixture of isomers): 193
C[C@@H]1C[C@@H]2O[C@@H]2/C=C\C=C\C(=NOCc2ccccc2Cl)Cc2c(Cl)c(O)cc(O)c2C(=O)O1: 186

###

- System: Hsp90 in HEPG2 lysate
- Condition description: HepG2 lysate, 12.346 nM
Consider the cut-off 200. If the recorded FP signal (raw) is strictly smaller, the label is satisfied; if not, the label is not satisfied.

COc1ccccc1CON=C1C=CC=CC2OC2CC(C)OC(=O)c2c(O)cc(O)c(Cl)c2C1 (mixture of isomers): not satisfied
COc1ccc(CON=C2C=CC=CC3OC3CC(C)OC(=O)c3c(O)cc(O)c(Cl)c3C2)cc1 (mixture of isomers): not satisfied
CC1CC2OC2C=CC=CC(=NOCCN2CCCC2=O)Cc2c(Cl)c(O)cc(O)c2C(=O)O1 (centres unmarked) [KF58333, reference compound]: satisfied
Cc1ccc(CON=C2C=CC=CC3OC3CC(C)OC(=O)c3c(O)cc(O)c(Cl)c3C2)cc1 (mixture of isomers): not satisfied
CC1(C)CC(=O)c2c(C(F)(F)F)nn(-c3ccc(C(N)=O)c(N[C@H]4CC[C@H](OC(=O)CN)CC4)c3)c2C1: satisfied
COc1ccc(CON=C2C=CC=CC3OC3CC(C)OC(=O)c3c(O)cc(O)cc3C2)cc1 (centres unmarked): not satisfied

###

- System: Hsp90 in HEPG2 lysate
- Condition description: HepG2 lysate, 3000 nM compound, raw
Measured FP signal, listed per entry.
Measured endpoint: FP signal

COc1ccccc1CON=C1C=CC=CC2OC2CC(C)OC(=O)c2c(O)cc(O)c(Cl)c2C1 (mixture of isomers): 44
CCON=C1/C=C/C=C\[C@H]2O[C@H]2C[C@@H](C)OC(=O)c2c(O)cc(O)c(Cl)c2C1: 43
COC1=C2C[C@@H](C)C[C@H](OC)[C@H](O)[C@@H](C)/C=C(\C)[C@H](OC(N)=O)[C@@H](OC)/C=C\C=C(/C)C(=O)NC(=CC1=O)C2=O [geldanamycin, reference compound]: 30
CC1CC2OC2C=CC=CC(=NOCc2ccccc2)Cc2c(Cl)c(O)cc(O)c2C(=O)O1 (mixture of isomers): 39
COc1ccc(CON=C2C=CC=CC3OC3CC(C)OC(=O)c3c(O)cc(O)c(Cl)c3C2)cc1 (mixture of isomers): 105
CC1CC2OC2C=CC=CC(=NOCCN2CCCC2=O)Cc2c(Cl)c(O)cc(O)c2C(=O)O1 (stereo not drawn) [KF58333, reference compound]: 50

###

The following compounds are shown together with reported FP signal, Fxn Control values.
- System: Hsp90 in HEPG2 lysate
- Condition description: HEPG2 lysate, log concentration -0.340084 (0.457 nM)
Measured endpoint: FP signal, Fxn Control

COc1ccc(CON=C2C=CC=CC3OC3CC(C)OC(=O)c3c(O)cc(O)cc3C2)cc1 (stereo not shown) [CMLD013075]: 0.9857
CC1(C)CC(=O)c2c(C(F)(F)F)nn(-c3ccc(C(N)=O)c(N[C@H]4CC[C@H](OC(=O)CN)CC4)c3)c2C1 [SNX-5422]: 0.9858
Cc1ccc(CON=C2C=CC=CC3OC3CC(C)OC(=O)c3c(O)cc(O)c(Cl)c3C2)cc1 (mixture of isomers) [compound 218]: 0.9906
COc1ccccc1CON=C1C=CC=CC2OC2CC(C)OC(=O)c2c(O)cc(O)c(Cl)c2C1 (mixture of isomers) [compound 226]: 0.9713

###

- System: Hsp90 in HEPG2 lysate
- Condition description: HepG2 lysate, 37.037 nM
Measured endpoint: FP signal (raw)

CCNC(=O)c1noc(-c2cc(C(C)C)c(O)cc2O)c1-c1ccc(CN2CCOCC2)cc1 [AUY922, reference compound]: 44
CC1(C)CC(=O)c2c(C(F)(F)F)nn(-c3ccc(C(N)=O)c(N[C@H]4CC[C@H](OC(=O)CN)CC4)c3)c2C1: 149
CC1CC2OC2C=CC=CC(=NOCCN2CCCC2=O)Cc2c(Cl)c(O)cc(O)c2C(=O)O1 (stereo not shown) [KF58333, reference compound]: 61
COc1ccc(CON=C2C=CC=CC3OC3CC(C)OC(=O)c3c(O)cc(O)cc3C2)cc1 (stereo not shown): 211
